assay-protocol: Human HepG2 cell viability assay in 384 well format
Assay type: toxicity, cell-based
Design: dose 125 nL, time 70.5 hour; concentration not given beside the values
experimental-context: HepG2 cells, read-out: Inhibition
measured-metric: cytotoxicity at 70.5 h (%)
The figure you give is taken to be in %; do not add the unit.

query: Query (molecule): "CC(C)n1cnnc1CN(C)Cc1cnc(-c2ccco2)nc1" ; field requested: cytotoxicity at 70.5 h
result: -1.59

query: Try O=C(CN1CC(c2ccccc2)CC1=O)N1CCN(c2nccs2)CC1 (configuration not stated) next.
result: -6.92

query: Try "CCc1cc(NCc2cc(CC(C)C)on2)n2nccc2n1" next.
result: -2.02

query: Try "Cc1nc2cc(=O)[nH]n2c(C)c1CC(=O)NC(C)C" next.
result: -7.48

query: Try "c1cncc(CCc2nc(C3CC3)nn2-c2ccc3c(c2)OCCO3)c1" next.
result: 21.8

query: Try "Cc1ccc(CC(=O)N2CCc3nnc(N(C)C)cc3C2)s1" next.
result: -4.06

query: Try "Cc1cccc(OC2CCN(Cc3ncc[nH]3)CC2)c1" next.
result: 15.5

----------
Hi there, I'd appreciate the recorded cytotoxicity at 70.5 h for every entry that follows.
assay-protocol: Human HepG2 cell viability assay in 384 well format
Type: toxicity, cell-based
Parameters: dose 125 nL, time 70.5 hour; concentration not given beside the values
experimental-context: HepG2 cells, read-out: Inhibition

query: Query (molecule): COc1cccc(CC(C)NC(=O)NCc2ccn(C)c2)c1 (stereo not drawn) ; field requested: cytotoxicity at 70.5 h
result: 0.709%

query: Try "Cc1ccc(C)c(OCC(=O)NC2CCN(c3ccccn3)CC2)c1" next.
result: -11.1%

query: Try "Cc1cc(C(=O)N2CCNC(=O)C2)c(C)n1Cc1ccccn1" next.
result: -5.56%

query: Try "Cc1nc(-c2ccc(S(=O)(=O)N3CCSC3)cc2)co1" next.
result: -10.2%

query: Try "Cc1noc(C)c1CNS(=O)(=O)N(C)Cc1ccccc1Br" next.
result: -9.08%

query: Try Cc1noc(C)c1-c1cncc(C2CCCN2Cc2cncnc2)n1 (stereo not drawn) next.
result: -20.4%

query: Try "Cc1cn(CC(=O)NC2CCN(C(=O)C3CC3)CC2)c2ccccc12" next.
result: -9.4%

query: Try CCCN1CCC(CNC(=O)C2(c3ccccc3)CCC2)C1 (stereo not drawn) next.
result: 18.5%

query: Try "Cc1ccsc1S(=O)(=O)N1CCc2c(c(C(=O)O)nn2CC2CC2)C1" next.
result: -7.3%

query: Try CN(C(=O)CN1CCCC1=O)C1CCCN(C2Cc3ccccc3C2)C1 (stereo not drawn) next.
result: -3.18%

query: Try "Cc1c(C(=O)N2CCOCC2)nnn1-c1ccc2ncccc2c1" next.
result: -6.04%

query: Try CCc1nc(CNC2CCCc3c2cnn3CC)cs1 (stereo not drawn) next.
result: 6.14%

query: Try "CCSc1ccccc1C(=O)NCCN1CCC(c2cccs2)CC1" next.
result: 4.38%

query: Try "O=C(c1ccoc1)N1CCC(NCc2ccccc2Cl)CC1" next.
result: -8.33%

query: Try CN(C)C(CNS(=O)(=O)c1cnn(C)c1)c1cccc(F)c1 (stereo not drawn) next.
result: -1.66%

query: Try CC(C)N1CCC2(CC1)CC(NS(C)(=O)=O)c1ccccc1O2 (stereo not drawn) next.
result: 4.16%

query: Try CC(CNC(=O)c1cnc[nH]1)Oc1ccc(Cl)cc1 (stereo not drawn) next.
result: -22.4%

query: Try "CN1CCN(C(=O)CC2CCN(CCc3ccccn3)CC2)CC1" next.
result: -0.784%

----------
assay-protocol: Human HepG2 cell viability assay in 384 well format
Format: toxicity, cell-based
Set-up: dose 125 nL, time 70.5 hour; concentration not given beside the values
experimental-context: HepG2 cells, read-out: Inhibition
Hi there, I'd appreciate the recorded cytotoxicity at 70.5 h for every entry that follows.
The figure you give is taken to be in %; do not add the unit.

query: Query (compound): Cc1cnn(CC2CCCN2Cc2cn3ccsc3n2)c1 (centres undefined) ; field requested: cytotoxicity at 70.5 h
result: -9.34

query: Try CCN1CCOC(CNCc2cnc(N(CC)CC)s2)C1 (centres undefined) next.
result: 5.52

query: Try "O=C(Nc1ccccc1C(=O)NCCN1CCOCC1)c1ccco1" next.
result: 24.9

query: Try COc1ccc(C2CCCN2c2cnccn2)c(OC)c1 (centres undefined) next.
result: -2.67

query: Try CC(C)Oc1cccc(C(O)CNC(=O)Nc2cccs2)c1 (centres undefined) next.
result: -4.72

query: Try "Cc1cc(C)c(C(=O)N2CCn3nc(C(=O)NCCN(C)C)cc3C2)[nH]1" next.
result: -3.17

query: Try "CC(C)n1c(C(=O)N2CCCC2)nc2c1CCN(c1ncccn1)C2" next.
result: 0.473

query: Try Cc1ccc(CN2CCN(c3cc(NCCO)ncn3)CC2CCO)o1 (centres undefined) next.
result: -5.58

query: Try Cc1ccc(Br)cc1NC(=O)NCC(O)CO (centres undefined) next.
result: 3.24

----------
Hi there, I'd appreciate the recorded cytotoxicity at 70.5 h for every entry that follows.
assay-protocol: Human HepG2 cell viability assay in 384 well format
Format: toxicity, cell-based
Parameters: dose 125 nL, time 70.5 hour; concentration not given beside the values
experimental-context: HepG2 cells, read-out: Inhibition
The figure you give is taken to be in %; do not add the unit.

query: Query (molecule): O=C(CCCn1cncn1)N1CCC2(CCCNC2=O)C1 (stereo not drawn) ; field requested: cytotoxicity at 70.5 h
result: 0.299

query: Try COCC(=O)N1CCCC1c1nccnc1Nc1nc(C)cs1 (stereo not drawn) next.
result: -7.14

query: Try "COc1cc(-c2nc(N)n[nH]2)cc(OC)c1OC" next.
result: -8.57

query: Try "CN(C)S(=O)(=O)N1CCC[C@]2(C[C@@H](Oc3ccccn3)CO2)C1" next.
result: -17.2

query: Try Cc1c(-c2n[nH]c3c2CN(CC2CCOC2)CC3)cccc1C(F)(F)F (stereo not drawn) next.
result: -6.06

query: Try "Fc1cc(CN2CCOC3(CCOCC3)C2)ccc1OC(F)F" next.
result: -3.49

query: Try CCc1csc(C2CCCN(C(=O)c3ccnc(N(C)C)c3)C2)n1 (stereo not drawn) next.
result: 19.9

query: Try "CCN1CCOCC12CCN(C(=O)C1CCC1)CC2" next.
result: 14.1

query: Try COCC1CN(C(=O)c2cccs2)Cc2nccn2C1 (stereo not drawn) next.
result: -8.64

query: Try "Cc1ncc(CN(C)C(=O)Nc2cccc(N3CCNC3=O)c2)s1" next.
result: -3.19

query: Try "CCCOc1ccc(NC(=O)NCCC(=O)N(C)C)cc1Cl" next.
result: -4.39

query: Try "O=C(C1CC(F)(F)C1)N1C[C@@H]2CN(CC3CCCC3)CCO[C@@H]2C1" next.
result: 22.1

query: Try CN(C)C(=O)COC1COC2(CCN(S(C)(=O)=O)CC2)C1 (stereo not drawn) next.
result: -6.01

query: Try "N#Cc1ccc(CNCC2CCN(CCO)CC2)cc1" next.
result: -5.67

query: Try "Cn1cccc1C(=O)N1C[C@@H]2CCN(c3cccnc3)C[C@@H]2C1" next.
result: -7.6

query: Try CC(C)(C)OC(=O)N1CCC(C(=O)NCc2cc3ccccc3[nH]2)C1 (stereo not drawn) next.
result: -2.83

query: Try "CN1CCN(c2ccc3ccc(C(=O)N4CCCO4)cn23)CC1" next.
result: -9.32

query: Try Cc1nc(C)n(CC2CCCN2Cc2cc(C)on2)n1 (stereo not drawn) next.
result: -1.6

query: Try "O=C(O)C1(Oc2ccc3c(c2)OCO3)CCN(C2CCOCC2)CC1" next.
result: -14.1

query: Try CC(C)(C)c1cn2nc(N3CCCC3Cn3cccn3)sc2n1 (stereo not drawn) next.
result: 0.173

query: Try "O=C(c1cncc(N2CCC3(CC2)NCCNC3=O)n1)N1CCCCC1" next.
result: -4.89

query: Try "C[C@H](NS(C)(=O)=O)C(=O)NCc1cc(-c2ccco2)n(CC(F)(F)F)n1" next.
result: -4.57

query: Try CC(c1nccs1)N(C)S(=O)(=O)NCc1ccccc1 (stereo not drawn) next.
result: 25.4

query: Try "COc1ccc(C(=O)NC2CCN(c3ncccn3)CC2)cc1F" next.
result: -8.33

query: Try CN(Cc1cc(-c2ccccc2)no1)C1CCCN(c2cccnn2)C1 (stereo not drawn) next.
result: -13.5

query: Try O=C(NCCC1CCCCO1)c1coc(COc2ccc(F)cc2)n1 (stereo not drawn) next.
result: -6.58

query: Try "CCn1ccnc1CN1C[C@@H](CN2CCCC2)[C@@H](CO)C1" next.
result: -0.818

query: Try "Nc1cc(-c2ccc(C(=O)O)cc2O)c2cc[nH]c2n1" next.
result: 4.2

query: Try "c1cc(-c2c[nH]c([C@@H]3COCCN3Cc3ncc[nH]3)n2)ccn1" next.
result: 1.76

query: Try "Cc1ccc(CNC(=O)NCCCO)cc1" next.
result: 19.3

query: Try Cc1cc(NC(=O)CNC2CCc3nc(C(C)C)nn3C2)no1 (stereo not drawn) next.
result: -6.53

query: Try "CCn1cnnc1CNC(=O)c1cc(Cl)c(I)cc1OC" next.
result: -7.1

query: Try FC(F)(F)Cc1noc(CN2CCCC2c2noc(C3CC3)n2)n1 (stereo not drawn) next.
result: -8.5

query: Try "CC(C)COc1cncc(N(C)C2CCN(c3ncccn3)CC2)n1" next.
result: -12

query: Try Cc1cccc(C)c1OCCNC(=O)C(C)n1cncn1 (stereo not drawn) next.
result: -11.4

query: Try "CCc1ncc2c(n1)CN(Cc1cn3ccsc3n1)CC2" next.
result: 9.84

query: Try "CC1CCN(CCNC(=O)C2CCN(C(=O)C(C)(C)C)CC2)CC1" next.
result: -3.74

query: Try CCc1nc(CN2CCOC(CN(C)c3cccnn3)C2)cs1 (stereo not drawn) next.
result: -7.04

query: Try CSc1cc2c(cc1NC(=O)NCC1CCOC1)OCCO2 (stereo not drawn) next.
result: -1.8

query: Try "CN(Cc1cn[nH]c1-c1ccc(F)cc1)C(=O)CCC1CC1" next.
result: -13.8

query: Try "CCOCc1ncn2c1CN(C(=O)Nc1ccc(CC)cc1)CC2" next.
result: 14.1

query: Try Cc1nc2n(n1)CC(NCc1nc(-c3cccnc3)no1)CC2 (stereo not drawn) next.
result: -7.76

query: Try "COCC(=O)N1CCC2(CCN(Cc3ccccn3)CC2)CC1" next.
result: -23.5
